- methodDescription: Half life in rat at 1 mg/kg, iv and 2 mg/kg, po
- Type: ADME, organism-based
- testContext: in vivo
One threshold, 3 h, splits the recorded half-life values: lower ones are True, equal or higher ones are False.

The following compounds have reported results that may help.
[[record]]
structuresmilesstring = "CCN1Cc2ccc(OC)cc2C[C@@H]1C(=O)Nc1cc(F)c(-c2cn[nH]c2)cc1OCCN(C)C"
qualitativelabel = "True"

[[record]]
structuresmilesstring = "CN(C)CCOc1cc(-c2cn[nH]c2)c(F)cc1NC(=O)[C@H]1Cc2ccccc2CN1"
qualitativelabel = "True"

[[record]]
structuresmilesstring = "COc1ccc2c(c1)C[C@H](C(=O)Nc1ccc(-c3cn[nH]c3)cc1OCC1CCN(C)CC1)NC2"
qualitativelabel = "False"

[[record]]
structuresmilesstring = "COc1ccc2c(c1)C[C@H](C(=O)Nc1ccc(-c3cn[nH]c3)cc1OCCN(C)C)NC2"
qualitativelabel = "False"

[[record]]
structuresmilesstring = "CN(C)CCOc1cc(-c2cn[nH]c2)c(F)cc1NC(=O)[C@H]1Cc2ccccc2CN1CC1CC1"
qualitativelabel = "True"


Field: below-cutoff. Rule: recorded half-life strictly less than 3 h. Subject: COc1ccc2c(c1)C[C@H](C(=O)Nc1cc(F)c(-c3cn[nH]c3)cc1OCCN(C)C)NC2
True

====

Some compounds, each annotated with its measured bioavailability.
- methodDescription: Oral bioavailability in rat at 2 mg/kg
- Type: ADME, organism-based
- testContext: in vivo
Report as: number unit

[[record]]
structuresmilesstring = "COc1ccc2c(c1)C[C@H](C(=O)Nc1ccc(-c3cn[nH]c3)cc1OCCN(C)C)NC2"
readoutvalue = "28%"


bioavailability measured on CN(C)CCOc1cc(-c2cn[nH]c2)c(F)cc1NC(=O)[C@H]1Cc2ccccc2CN1CC1CC1 = 0%

====

In this section, each of the compounds is paired with its reported inhibition at 10 µM.
- target: CYP3A4 (Homo sapiens, UniProt P08684)
- Sequence (P08684 whole entry): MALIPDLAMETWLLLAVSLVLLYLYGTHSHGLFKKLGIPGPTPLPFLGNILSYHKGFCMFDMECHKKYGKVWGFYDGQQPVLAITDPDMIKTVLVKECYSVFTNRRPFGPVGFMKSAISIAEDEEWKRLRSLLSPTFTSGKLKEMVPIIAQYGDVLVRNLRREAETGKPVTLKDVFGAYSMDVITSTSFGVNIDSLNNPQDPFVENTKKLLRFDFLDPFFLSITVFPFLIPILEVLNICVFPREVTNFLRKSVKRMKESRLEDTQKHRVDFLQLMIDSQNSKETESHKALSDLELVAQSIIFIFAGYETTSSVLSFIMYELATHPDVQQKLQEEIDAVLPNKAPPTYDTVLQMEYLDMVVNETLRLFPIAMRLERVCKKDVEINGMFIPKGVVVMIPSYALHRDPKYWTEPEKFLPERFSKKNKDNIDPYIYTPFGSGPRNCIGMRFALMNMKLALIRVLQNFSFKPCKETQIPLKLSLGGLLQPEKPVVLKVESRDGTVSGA
- methodDescription: Inhibition of CYP3A4 at 10 uM
- Type: ADME
Report as a plain number; the unit % is understood.

Example entries and their recorded answers appear below.
[[record]]
structuresmilesstring = "COc1ccc2c(c1)C[C@H](C(=O)Nc1ccc(-c3cn[nH]c3)cc1OCC1CCN(C)CC1)NC2"
quantitykind = "inhibition at 10 µM"
readoutvalue = 15

[[record]]
structuresmilesstring = "CCN1Cc2ccccc2C[C@@H]1C(=O)Nc1cc(F)c(-c2cn[nH]c2)cc1OCCN(C)C"
quantitykind = "inhibition at 10 µM"
readoutvalue = 39

[[record]]
structuresmilesstring = "CN(C)CCOc1cc(-c2cn[nH]c2)c(F)cc1NC(=O)[C@H]1Cc2ccccc2CN1"
quantitykind = "inhibition at 10 µM"
readoutvalue = 18


# evaluate next
Sure, the documented inhibition at 10 µM for COc1ccc2c(c1)C[C@H](C(=O)Nc1ccc(-c3cn[nH]c3)cc1OCCN(C)C)NC2 is -3

====

- target: CYP2C9 (Homo sapiens)
- Sequence (P11712 whole entry): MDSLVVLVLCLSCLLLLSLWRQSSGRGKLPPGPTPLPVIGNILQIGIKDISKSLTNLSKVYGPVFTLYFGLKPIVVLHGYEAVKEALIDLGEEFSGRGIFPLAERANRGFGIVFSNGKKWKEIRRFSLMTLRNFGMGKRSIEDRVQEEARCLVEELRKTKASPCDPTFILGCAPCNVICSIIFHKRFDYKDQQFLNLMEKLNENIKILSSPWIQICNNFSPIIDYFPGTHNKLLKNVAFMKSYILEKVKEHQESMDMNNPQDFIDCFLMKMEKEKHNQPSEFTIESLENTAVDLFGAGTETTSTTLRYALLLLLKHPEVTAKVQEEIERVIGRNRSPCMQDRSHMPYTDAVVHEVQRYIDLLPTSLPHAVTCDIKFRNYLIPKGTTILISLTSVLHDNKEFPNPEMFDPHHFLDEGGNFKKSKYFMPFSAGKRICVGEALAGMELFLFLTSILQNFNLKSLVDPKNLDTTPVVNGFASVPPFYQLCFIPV
- methodDescription: Inhibition of CYP2C9 at 10 uM
- Type: ADME
Listing: inhibition at 10 µM of selected molecules
Answer format: numeric, % implied, no suffix.

[[record]]
structuresmilesstring = "COc1ccc2c(c1)C[C@H](C(=O)Nc1ccc(-c3cn[nH]c3)cc1OCCN(C)C)NC2"
quantitykind = "inhibition at 10 µM"
unitdescriptor = "%"
readoutvalue = 31


The reported inhibition at 10 µM of the molecule CN(C)CCOc1cc(-c2cn[nH]c2)c(F)cc1NC(=O)[C@H]1Cc2ccccc2CN1 was 62

For record COc1ccc2c(c1)C[C@H](C(=O)Nc1ccc(-c3cn[nH]c3)cc1OCC1CCN(C)CC1)NC2 the listed inhibition at 10 µM is 45

For record CCN1Cc2ccccc2C[C@@H]1C(=O)Nc1cc(F)c(-c2cn[nH]c2)cc1OCCN(C)C the listed inhibition at 10 µM is 70
